- Test system: poly(dG-dC)2 (DNA, polymer) GC
- methodDescription: ethidium bromide displacement, fluorescence
- assayContext: apparent; room temperature; ethidium bromide displaced; compound 10, 50, 100 µM
Here the recorded Kapp is given for each entry.

COc1cc(/C=C/C(=O)Nc2ccc(N)cc2)cc(OC)c1OC :: 3.4 ± 0.2 × 10^5 M^−1

Data point: `COc1cc(C(=O)Nc2ccc(F)c(N)c2)cc(OC)c1OC` ; Kapp = 3.0 ± 0.2 × 10^5 M^−1

Data point: `COc1cc(OC)cc(C(=O)Nc2ccc(N)nc2)c1` ; Kapp = 2.3 ± 0.2 × 10^5 M^−1

* * *

- Tested on: poly(dA-dT)2
- methodDescription: Ethidium displacement assay, apparent binding constant, poly(dA-dT)2
- assayContext: apparent association constant, ± 0.2 × 10^5 M^−1
quantityName: Kapp Poly (dA-dT)2 (M⁻¹)
The response must be a number in M⁻¹ with no trailing unit.

Guide cases for Kapp Poly (dA-dT)2, answers given:
COc1cc(C(=O)Nc2cc(N)ccc2Cl)cc(OC)c1OC [Compound 5] :: 130000
COc1cc(/C=C/C(=O)Nc2ccc(Cl)c(N)c2)cc(OC)c1OC [Compound 16] :: 270000
COc1cc(/C=C/C(=O)Nc2ccc(F)c(N)c2)cc(OC)c1OC [Compound 17] :: 50000

Data point: COc1cc(OC)cc(C(=O)Nc2ccc(N)nc2)c1 [Compound 7] ; Kapp Poly (dA-dT)2 = 340000
